target: T1, Human ROBO1 RSK mutant overexpressed on HEK293 cells (human, UniProt Q9Y6N7 26-1651); assay: flow cytometry, Geo MFI ROBO1-RSK/ROBO2-KSR HEK293 cells, 2.5 µg/ml
T1 construct: K137R and R139K already in the entry; also called ROBO1-RSK cells
T1 sequence (Q9Y6N7 other isoform, or with tags, fused parts or gaps mutant limits assumed): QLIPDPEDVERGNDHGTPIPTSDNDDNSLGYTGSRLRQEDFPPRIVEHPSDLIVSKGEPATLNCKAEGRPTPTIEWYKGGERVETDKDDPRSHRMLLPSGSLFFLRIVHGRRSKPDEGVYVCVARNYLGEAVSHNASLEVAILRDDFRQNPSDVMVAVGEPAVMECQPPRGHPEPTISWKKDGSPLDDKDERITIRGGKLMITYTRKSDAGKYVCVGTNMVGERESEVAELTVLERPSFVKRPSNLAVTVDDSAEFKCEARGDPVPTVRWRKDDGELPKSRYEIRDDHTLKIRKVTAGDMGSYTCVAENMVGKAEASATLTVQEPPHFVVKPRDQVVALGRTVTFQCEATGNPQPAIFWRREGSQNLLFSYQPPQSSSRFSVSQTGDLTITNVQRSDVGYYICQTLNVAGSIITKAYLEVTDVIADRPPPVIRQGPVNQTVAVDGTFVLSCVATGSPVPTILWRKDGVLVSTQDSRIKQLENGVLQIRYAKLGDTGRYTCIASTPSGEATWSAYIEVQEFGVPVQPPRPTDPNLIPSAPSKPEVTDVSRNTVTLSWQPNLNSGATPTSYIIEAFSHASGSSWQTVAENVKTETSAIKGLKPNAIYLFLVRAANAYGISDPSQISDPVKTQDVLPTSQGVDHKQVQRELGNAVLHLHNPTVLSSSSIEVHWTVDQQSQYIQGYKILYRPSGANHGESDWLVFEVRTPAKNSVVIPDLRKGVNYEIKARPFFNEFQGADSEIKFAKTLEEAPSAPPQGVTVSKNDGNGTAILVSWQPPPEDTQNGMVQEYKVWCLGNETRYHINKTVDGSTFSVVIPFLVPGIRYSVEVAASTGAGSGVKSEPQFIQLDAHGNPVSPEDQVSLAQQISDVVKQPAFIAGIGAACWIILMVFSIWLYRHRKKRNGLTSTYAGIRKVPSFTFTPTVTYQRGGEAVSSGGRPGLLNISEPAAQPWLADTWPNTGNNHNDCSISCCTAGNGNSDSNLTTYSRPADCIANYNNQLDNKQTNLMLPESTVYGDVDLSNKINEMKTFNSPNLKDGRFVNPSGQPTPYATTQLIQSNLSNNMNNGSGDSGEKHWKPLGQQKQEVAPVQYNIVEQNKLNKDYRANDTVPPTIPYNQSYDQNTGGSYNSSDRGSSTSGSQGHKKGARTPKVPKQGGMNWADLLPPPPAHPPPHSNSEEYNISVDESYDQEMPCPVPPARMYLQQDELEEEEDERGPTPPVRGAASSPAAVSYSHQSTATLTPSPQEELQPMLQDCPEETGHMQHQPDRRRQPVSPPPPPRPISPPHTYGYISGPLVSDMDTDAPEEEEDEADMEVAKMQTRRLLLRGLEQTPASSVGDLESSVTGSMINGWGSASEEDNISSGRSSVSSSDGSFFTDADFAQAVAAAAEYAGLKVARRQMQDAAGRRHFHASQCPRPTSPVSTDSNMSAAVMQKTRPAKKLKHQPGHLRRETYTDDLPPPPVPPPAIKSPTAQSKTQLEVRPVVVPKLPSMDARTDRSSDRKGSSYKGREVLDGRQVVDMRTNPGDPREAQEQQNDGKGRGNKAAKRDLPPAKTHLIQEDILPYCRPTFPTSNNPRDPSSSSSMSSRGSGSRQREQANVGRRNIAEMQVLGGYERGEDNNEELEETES
Metric: Fold Selectivity for RSK/KSR

Below, 2 binders whose answers are already recorded.
CTIR2-13 (antibody, human IgG1, kappa, V domains shown, CDR-shuffled IgG) VH: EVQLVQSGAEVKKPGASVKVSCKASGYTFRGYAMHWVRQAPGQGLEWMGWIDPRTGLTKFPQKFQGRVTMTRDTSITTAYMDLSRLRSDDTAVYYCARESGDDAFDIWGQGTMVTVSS VL: DIVMTQSPSSLSASVGDRVTITCRASQKISSYLNWYQQKPGKAPKLLIYAASSLQYGVPSRFSGSGSGTDFTLTISSLQPEDFATYYCQQSYSTSFGGGTKVEIKR : 2.5 fold
CTIR2-15 (antibody, human IgG1, kappa, V domains shown, CDR-shuffled IgG) VH: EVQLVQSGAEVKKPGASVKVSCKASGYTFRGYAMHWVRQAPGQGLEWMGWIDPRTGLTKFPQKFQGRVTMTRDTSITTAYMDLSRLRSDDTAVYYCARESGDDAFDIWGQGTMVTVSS VL: DIVMTQSPSSLSASVGDRVTITCRASQKISSYLNWYQQKPGKAPKLLIYAASSLQYGVPSRFSGSGSGTDFTLTISSLQPEDFATYYCQQSVGLSFGGGTKVEIKR : > 100 fold

API: the following record is the query input.
Recall and state the measured Fold Selectivity for RSK/KSR for CTIR2-9 (antibody, human IgG1, kappa, V domains shown, CDR-shuffled IgG) VH: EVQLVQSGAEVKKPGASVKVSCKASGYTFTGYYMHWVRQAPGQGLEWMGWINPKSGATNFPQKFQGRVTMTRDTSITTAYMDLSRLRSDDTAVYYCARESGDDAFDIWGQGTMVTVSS VL: DIVMTQSPSSLSASVGDRVTITCRASQKISSYLNWYQQKPGKAPKLLIYAASSLQYGVPSRFSGSGSGTDFTLTISSLQPEDFATYYCQQSVGLFFGGGTKVEIKR . > 100 fold
